Some compounds, each annotated with its measured cell viability.
- System: MOLM14
- Protocol Summary: cell viability relative to vehicle control; higher = less cytotoxic;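 further: after 48 h exposure read by CellTiter-Glo luminescence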
- Condition Description: 10 µM; SRSF2 genotype: SRSF2 wt/wt
Measure Name: cell viability

1. O=C1[C@H](CC[C@H](O)c2ccc(F)cc2)[C@@H](c2ccc(O)cc2)N1c1ccc(F)cc1 [Ezetimibe (Zetia)] ... 90.1%
2. COc1ccc(O)cc1 ... 96.9%
3. COc1ccc2c(c1O)-c1c(O)c(OC)cc3c1[C@H](C2)[N+](C)(C)CC3 [Magnoflorine] ... 100%
4. O=C(Nc1cccc(C(F)(F)F)c1)Nc1cc(S(=O)(=O)NC2CC2)ccc1-c1ccsc1 ... 94.4%
5. COc1cc(S(=O)(=O)O)ccc1O ... 104%
6. OCCOCCN1CCN(C(c2ccccc2)c2ccc(Cl)cc2)CC1 (stereo not drawn) [Hydroxyzine pamoate] ... 96.4%
7. CN1C(N)=N[C@](C)(c2cc(NC(=O)c3ccc(F)cn3)ccc2F)CS1(=O)=O ... 102%
8. CCc1ccc(-c2nc(CSCC(=O)NCCc3ccccc3)c(C)o2)cc1 ... 96.8%
9. COc1cc2nccc(Oc3ccc(NC(=O)C4(C(=O)Nc5ccc(F)cc5)CC4)cc3)c2cc1OC [Cabozantinib malate] ... 7.8%
10. C[C@@H]1O[C@@H]1P(=O)(O)O ... 104%
11. CC(C)(CO)C(O)C(=O)NCCC(=O)O [Calcium D-Panthotenate] ... 97.2%
12. c1ccc(CNc2nc(NCc3ccccc3)c3ccccc3n2)cc1 ... 0.16%
13. CC1(C)[C@@H](O[C@H]2O[C@H](C(=O)O)[C@@H](O)[C@H](O)[C@H]2O[C@@H]2O[C@H](C(=O)O)[C@@H](O)[C@H](O)[C@H]2O)CC[C@]2(C)[C@H]3C(=O)C=C4[C@@H]5C[C@@](C)(C(=O)O)CC[C@]5(C)CC[C@@]4(C)[C@]3(C)CC[C@@H]12 [Diammonium Glycyrrhizinate] ... 103%

* * *

Some compounds, each annotated with its measured cell viability.
- System: MOLM14
- Protocol Summary: cell viability relative to vehicle control; higher = less cytotoxic
- Condition Description: 10 µM; SRSF2 genotype: SRSF2 P95H/wt
Measure Name: cell viability

1. O=C(/C=C/c1ccc(O)c(O)c1)c1ccc(O)cc1O ... 52.4%
2. O=C(O)CCCC[C@@H]1CCSS1 (racemic) ... 92.8%
3. Oc1nc(-c2ccc(C(F)(F)F)cc2)nc2c1CSCC2 ... 94%
4. COc1c(O)cc2c(c1O)[C@@H]1O[C@H](CO)[C@@H](O)[C@H](O)[C@H]1OC2=O ... 85.6%

* * *

Some compounds, each annotated with its measured cell viability.
- System: K562
- Protocol Summary: cell viability relative to vehicle control; higher = less cytotoxic
- Condition Description: 10 µM; SRSF2 genotype: SRSF2 wt/wt
Measure Name: cell viability (%)

1) CCOc1ccccc1N=Nc1c(C)[nH]n(-c2nc(-c3ccccc3)cs2)c1=O ... 91.9
2) COc1ccccc1-c1cc(Nc2cccc(CS(N)(=O)=O)c2)ncn1 ... 91.5
3) C[C@H](Cc1cc2c(c(C(N)=O)c1)N(CCCO)CC2)NCCOc1ccccc1OCC(F)(F)F [Silodosin] ... 87.5
4) O=C(Nc1ccc(-c2ccnc(Nc3ccc(N4CCOCC4)cc3)n2)cc1)C1CCCN1 (centres undefined) ... 89.5

* * *

- Tested on: K562
- Protocol Summary: cell viability relative to vehicle control; higher = less cytotoxic
- Condition Description: 10 µM; SRSF2 genotype: SRSF2 wt/wt
Counter-ions that a name gives are not always drawn.
Some compounds, each annotated with its measured cell viability.
Measure Name: cell viability (%)

1) COc1cc(NS(=O)(=O)c2ccc(N)cc2)nc(OC)n1 [SulfadiMethoxine sodium] ... 111
2) O=C(O)COc1ccc(Br)cc1C=C1SC(=S)N(Cc2cccnc2)C1=O [Skp2 inhibitor C1 (SKPin C1)] ... 35.5
3) CCCCN1CCCC[C@H]1C(=O)Nc1c(C)cccc1C [Levobupivacaine HCl] ... 80.2
4) CN1CC[C@@H](NC(=O)Nc2ccc(C#N)cc2)C[C@@H]1c1nc2ccccc2[nH]1 ... 107
5) CCOC(=O)C1=C(N)Oc2ccc(Cl)cc2C1C(C#N)C(=O)OCC (stereo not drawn) ... 65.4
6) CCCCN(Cc1ccc(C(=O)NO)cc1)C(=O)Nc1ccccc1 ... 45.5
7) O=C(O)C(Cc1ccccc1[N+](=O)[O-])=NNc1nc(-c2ccc(Cl)c(Cl)c2)cs1 ... 87.9
8) COCCOc1cnc2ccn([C@H](C)c3nnc4c(F)cc(-c5cnn(C)c5)cn34)c(=O)c2c1 ... 85.7
9) COc1cc2c(cc1O)C[C@H]1c3cc(O)c(OC)cc3CC[N@@+]1(C)C2 ... 102
10) CN(C)CCOc1ccc(/C(=C(/CCCl)c2ccccc2)c2ccccc2)cc1 [Toremifene Citrate (Fareston, Acapodene)] ... 71.9
11) CC(C)Oc1ccc(-c2nc(-c3cccc4c3CC[C@@H]4NCCO)no2)cc1C#N [Ozanimod (RPC1063)] ... 30.6
12) COc1ccc2c(c1)c(CC(=O)OCC(=O)O)c(C)n2C(=O)c1ccc(Cl)cc1 [Acemetacin (Emflex)] ... 93.5
13) CN(C)CCC(c1ccc(Br)cc1)c1ccccn1 (stereo not drawn) [Brompheniramine hydrogen maleate] ... 91.3

* * *

Some molecules, each annotated with its measured cell viability.
- Test system: MOLM14
- Protocol Summary: cell viability relative to vehicle control; higher = less cytotoxic
- Condition Description: 10 µM; SRSF2 genotype: SRSF2 P95H/wt
Where a name gives a salt, the structure may show the parent alone.
Measure Name: cell viability

1. COc1cc(C(=O)OCCCCNC(=N)N)cc(OC)c1O [Leonurine Hydrochloride] ... 98%
2. C#CC1(O)CC[C@H]2[C@@H]3CCC4=CC(=O)CC[C@@H]4[C@H]3CC[C@@]21CC (stereo partly drawn) [Norgestrel] ... 98.2%
3. Cc1cc(C)nc(NS(=O)(=O)c2ccc(N)cc2)n1 [Sulfamethazine Sodium Salt] ... 100%

* * *

Some compounds, each annotated with its measured cell viability.
- System: MARIMO
- Protocol Summary: cell viability relative to vehicle control; higher = less cytotoxic
- Condition Description: 10 µM; SRSF2 genotype: SRSF2 wt/wt
Counter-ions that a name gives are not always drawn.
Measure Name: cell viability

1) CC(C(=O)O)c1cccc(Oc2ccccc2)c1 (centres undefined) [Fenoprofen calcium hydrate] ... 101%
2) Cc1c(C(=O)C=Cc2ccccc2)[n+](=O)c2ccccc2n1[O-] [Quinocetone] ... 63.8%
3) CC(C)NC(=O)COc1cccc(-c2nc(Nc3ccc4[nH]ncc4c3)c3ccccc3n2)c1 ... 72.4%
4) C=CC(=O)N1CCN(C(=O)CNc2cc(I)c(Cl)cc2O)CC1 [K-Ras(G12C) inhibitor 12] ... 83.6%
5) CC1=C(/C=C/C(C)=C/C=C/C(C)=C/C(=O)O)C(C)(C)CCC1 [All-trans Retinoic Acid (Tretinoin)] ... 73.6%
6) O=C(O)CNC(=O)c1ccccc1 [Hippuric acid] ... 112%
7) Cc1nnsc1C(=O)Nc1ccc(-n2nc(C(F)(F)F)cc2C(F)(F)F)cc1 ... 98.2%
8) Cc1n[nH]c2ncc(C(=O)N3CCC[C@H]3c3ccc(Cl)cc3)cc12 ... 128%
9) N=C(N)N [Guanidine (Aminoformamidine) HCl] ... 98.3%

* * *

- Tested on: MARIMO
- Protocol Summary: cell viability relative to vehicle control; higher = less cytotoxic
- Condition Description: 10 µM; SRSF2 genotype: SRSF2 wt/wt
Some compounds, each annotated with its measured cell viability.
Measure Name: cell viability

1) CC(=O)OCC1=C(C(=O)O)N2C(=O)[C@@H](NC(=O)CSc3ccncc3)[C@H]2SC1 [cephapirin sodium] ... 107%
2) CS(=O)(=O)Nc1ccc([N+](=O)[O-])cc1OC1CCCCC1 ... 95.3%
3) CC(C)COc1ccc(CNC(=O)N(Cc2ccc(F)cc2)C2CCN(C)CC2)cc1 [Pimavanserin] ... 4.09%
4) COc1cc2ncc(-c3ccccc3)nc2cc1OC [Tyrphostin AG 1296 (AG 1296)] ... 82.2%
5) C#C[C@]1(O)CC[C@H]2[C@@H]3CCC4=CC(=O)CC[C@@H]4[C@H]3CC[C@@]21C [Norethindrone (Norethisterone)] ... 116%
6) CN(CCOc1ccc(NS(C)(=O)=O)cc1)CCc1ccc(NS(C)(=O)=O)cc1 [Dofetilide (Tikosyn)] ... 104%
7) CC[C@H](Nc1ncnc2[nH]cnc12)c1oc2ccccc2c(=O)c1-c1cccc(F)c1 [Tenalisib (RP6530)] ... 100%
8) COc1ccc(-c2cc(=O)c3c(O)cc(OC4OC(CO)C(O)C(O)C4OC4OC(C)C(O)C(O)C4O)cc3o2)cc1O (stereo not given) [Neodiosmin] ... 97%
9) C[C@H]1O[C@@H](O[C@H]2CC[C@@]3(C)[C@@H](CC[C@]4(C)[C@@H]3C=C[C@]35OC[C@@]6(CCC(C)(C)C[C@H]63)[C@@H](O)C[C@]54C)[C@]2(C)CO)[C@H](O)[C@@H](O[C@@H]2O[C@H](CO)[C@@H](O)[C@H](O)[C@H]2O)[C@H]1O [Saikosaponin A] ... 46.1%
10) CN1CCN(c2ccc3nc(-c4c(N)c5c(F)cccc5[nH]c4=O)[nH]c3c2)CC1 [Dovitinib Dilactic acid (TKI258 Dilactic aci] ... 12.8%
